Each entry below carries its reported pIC50.
# Study System: human Yes1 enzyme (Homo sapiens)
# Construct: made in house
# Sequence (P07947 whole entry): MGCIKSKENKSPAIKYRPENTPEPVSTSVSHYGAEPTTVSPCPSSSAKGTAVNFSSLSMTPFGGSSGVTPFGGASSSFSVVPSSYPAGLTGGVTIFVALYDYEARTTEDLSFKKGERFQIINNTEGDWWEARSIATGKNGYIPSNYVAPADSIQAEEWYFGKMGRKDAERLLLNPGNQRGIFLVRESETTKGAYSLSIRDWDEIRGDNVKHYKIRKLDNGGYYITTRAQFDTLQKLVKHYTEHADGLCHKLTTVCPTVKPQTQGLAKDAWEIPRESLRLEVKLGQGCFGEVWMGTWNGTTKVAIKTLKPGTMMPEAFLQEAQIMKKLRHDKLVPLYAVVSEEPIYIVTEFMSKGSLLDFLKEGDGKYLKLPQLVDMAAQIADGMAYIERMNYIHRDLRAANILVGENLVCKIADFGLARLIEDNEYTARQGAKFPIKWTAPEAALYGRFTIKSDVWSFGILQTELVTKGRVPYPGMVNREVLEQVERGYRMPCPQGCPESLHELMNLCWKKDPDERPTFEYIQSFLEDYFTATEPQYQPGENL
# Procedure Text: Yes1 enzyme inhibitory activity (time-resolved fluorometry, biotinylated peptide phosphorylation)
# Type: biochemical
# Condition Set: biotinylated peptide phosphorylation, read-out: YES_IC50
# Experimental: 1. Yes1 Enzyme Inhibitory Activity Yes1 inhibitory activity was determined based on activity of inhibiting phosphorylation reaction of a biotinylated peptide (EGPWLEEEEEAYGWMDF) using a human Yes1 enzyme prepared using a baculovirus expression system. The phosphorylated biotinylated peptide was detected by time-resolved fluorometry using an anti-phosphorylated tyrosine antibody conjugated to europium cryptate, and streptavidin conjugated to XL665, an allophycocyanin derivative. […]
Scale: pIC50 equals -log10([C]), with [C] in mol/L.

{"Structure Smiles String": "Cc1cc2cc(C(=O)c3cnn(-c4cnc(Oc5ccccc5F)cc4C)c3N)[nH]c2cc1NS(=O)(=O)c1cncc(C#N)c1", "pIC50": 8.19}

Query: # lookup: pIC50 of Cc1cc(Oc2c(F)cccc2F)ncc1-n1ncc(C(=O)c2cc3cc(F)c(N4CCCS4(=O)=O)cc3[nH]2)c1N
Reply: 9.14

Query: # lookup: pIC50 of Cc1cc(Oc2c(F)cccc2F)ncc1-n1ncc(C(=O)c2cc3cc(F)c(NS(=O)(=O)c4cccc(Cl)n4)cc3[nH]2)c1N
Reply: 8.06

Query: # lookup: pIC50 of Cc1cc2cc(C(=O)c3cnn(-c4c(C)cc(Oc5ccccc5)cc4F)c3N)[nH]c2cc1NS(C)(=O)=O
Reply: 8.70

Query: # lookup: pIC50 of Cc1cc(Oc2c(F)cccc2F)ncc1-n1ncc(C(=O)c2cc3cc(OCC(F)F)c(C4CCN(C(=O)CN)CC4)cc3[nH]2)c1N
Reply: 8.49

----------
# Study System: human Src enzyme (Homo sapiens)
# Construct: purchased Carna Biosciences, Inc. 08-173
# Procedure Text: Src enzyme inhibitory activity (time-resolved fluorometry, biotinylated peptide phosphorylation)
# Assay type: biochemical
# Condition Set: read-out: SRC_IC50
Outcome Measure: pIC50
Scale: pIC50 equals -log10([C]), with [C] in mol/L.

{"Molecule": "Cc1cc(Oc2cc(F)cc(F)c2)ncc1-n1ncc(C(=O)c2cc3cc(F)c(NS(C)(=O)=O)cc3[nH]2)c1N", "pIC50": 6.57}
{"Molecule": "Nc1c(C(=O)c2cc3cc(F)c(NS(=O)(=O)CCCF)cc3[nH]2)cnn1-c1ccc(Oc2ncccc2Cl)cc1Cl", "pIC50": 7.35}

Query: Hello, I am looking for reported pIC50 with human Src enzyme (Homo sapiens) for Cc1cc(Oc2ccccc2F)ccc1-n1ncc(C(=O)c2cc3cc(F)c(N4CCC(N5CCOCC5)CC4)cc3[nH]2)c1N . Could you help?
Reply: 7.64

Query: Hello, I am looking for reported pIC50 with human Src enzyme (Homo sapiens) for Cc1cc(Oc2ccccc2F)ccc1-n1ncc(C(=O)c2cc3cc(OCC(F)F)c(N4C(=O)NC5(CCN(C6COC6)C5)C4=O)cc3[nH]2)c1N (stereo not drawn) . Could you help?
Reply: 7.14

Query: Hello, I am looking for reported pIC50 with human Src enzyme (Homo sapiens) for Cc1cc2cc(C(=O)c3cnn(-c4cnc(Oc5c(F)cccc5F)cc4C)c3N)[nH]c2cc1C1CCN(S(=O)(=O)C2CC2)CC1 . Could you help?
Reply: 7.09

Query: Hello, I am looking for reported pIC50 with human Src enzyme (Homo sapiens) for Cc1cc(Oc2c(F)cccc2F)ncc1-n1ncc(C(=O)c2cc3cc(OCC(F)F)c(NS(=O)(=O)c4cccnc4)cc3[nH]2)c1N . Could you help?
Reply: 7.05

----------
# Study System: human Src enzyme (Homo sapiens)
# Construct: purchased Carna Biosciences, Inc. 08-173
# Procedure Text: Src enzyme inhibitory activity (time-resolved fluorometry, biotinylated peptide phosphorylation)
# Format: biochemical
# Condition Set: biotinylated peptide phosphorylation, read-out: SRC_IC50
pIC50: −log10 of the molar value.
Binary call on pIC50: true (1) from 7 upward, false (0) beneath that.

{"Structure Smiles String": "Cc1cc(Oc2ccccc2F)ccc1-n1ncc(C(=O)c2cc3cc(F)c(C4CCN(C(C)C)CC4)cc3[nH]2)c1N", "Study System": "human Src enzyme (Homo sapiens)", "Assigned Label": "true (1)"}

Query: Check if pIC50 >= 7 (inclusive). Item: Cc1cc(Oc2cccc(F)c2F)ccc1-n1ncc(C(=O)c2cc3cc(F)c(C4CCN(C(C)C)CC4)cc3[nH]2)c1N
Reply: true (1)

Query: Check if pIC50 >= 7 (inclusive). Item: Cc1cc(-n2ncc(C(=O)c3cc4cc(C)c(N5C(=O)NC6(CCC6)C5=O)cc4[nH]3)c2N)ccc1Oc1ccccc1F
Reply: false (0)

Query: Check if pIC50 >= 7 (inclusive). Item: Cc1cc(Oc2ccccc2F)ncc1-n1ncc(C(=O)c2cc3cc(F)c(NS(=O)(=O)c4cc(F)cc(F)c4)cc3[nH]2)c1N
Reply: false (0)

Query: Check if pIC50 >= 7 (inclusive). Item: CC(C)N1CCC(c2cc3cc(C(=O)c4cnn(-c5ccc(Oc6ccccc6F)cc5F)c4N)[nH]c3cc2F)CC1
Reply: true (1)

Query: Check if pIC50 >= 7 (inclusive). Item: Cc1cc(Oc2ccccc2F)cc(C)c1-n1ncc(C(=O)c2cc3cc(F)c(NS(=O)(=O)C4CC4)cc3[nH]2)c1N
Reply: false (0)

----------
# Study System: human Src enzyme (Homo sapiens, UniProt P12931)
# Construct: purchased Carna Biosciences, Inc. 08-173
# Sequence (P12931 whole entry): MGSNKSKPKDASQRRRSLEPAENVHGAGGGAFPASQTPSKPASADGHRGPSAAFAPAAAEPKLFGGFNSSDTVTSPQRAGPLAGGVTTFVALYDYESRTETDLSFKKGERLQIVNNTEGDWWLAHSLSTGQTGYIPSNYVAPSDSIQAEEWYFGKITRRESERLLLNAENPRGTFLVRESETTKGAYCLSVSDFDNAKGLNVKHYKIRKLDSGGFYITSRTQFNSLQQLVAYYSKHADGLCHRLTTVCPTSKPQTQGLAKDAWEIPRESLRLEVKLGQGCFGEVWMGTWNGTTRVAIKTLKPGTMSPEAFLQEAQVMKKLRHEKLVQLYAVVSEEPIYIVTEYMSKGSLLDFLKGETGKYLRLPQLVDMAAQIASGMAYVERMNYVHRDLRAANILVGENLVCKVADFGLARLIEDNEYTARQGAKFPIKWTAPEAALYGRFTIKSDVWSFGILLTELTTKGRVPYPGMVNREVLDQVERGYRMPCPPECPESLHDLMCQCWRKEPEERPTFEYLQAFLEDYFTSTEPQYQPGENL
# Procedure Text: Src enzyme inhibitory activity (time-resolved fluorometry, biotinylated peptide phosphorylation)
# Format: biochemical
# Condition Set: biotinylated peptide phosphorylation, read-out: SRC_IC50
Each entry below carries its reported IC50.
Respond numerically; units are nM and should not be typed.

Worked cases, answers included:
{"Structure Smiles String": "Cc1cc(Oc2ccccc2F)ncc1-n1ncc(C(=O)c2cc3cc(OC(F)F)c(N4C(=O)NC(C)(C)C4=O)cc3[nH]2)c1N", "Outcome Measure": "IC50", "Reported Measurement": 63}
{"Structure Smiles String": "Cc1cc(Oc2ccccc2F)ccc1-n1ncc(C(=O)c2cc3cc(OCC(F)F)c(NS(=O)(=O)c4cccc(C#N)c4)cc3[nH]2)c1N", "Outcome Measure": "IC50", "Reported Measurement": 210}

Consider now this further molecule.
Query: # lookup: IC50 of Cc1cc2cc(C(=O)c3cnn(-c4ccc(Oc5ccccc5F)cc4C)c3N)[nH]c2cc1N1C(=O)NC2(CCOCC2)C1=O
Reply: 43

----------
# Study System: human Src enzyme (Homo sapiens, UniProt P12931)
# Construct: purchased Carna Biosciences, Inc. 08-173
# Procedure Text: Src enzyme inhibitory activity (time-resolved fluorometry, biotinylated peptide phosphorylation)
# Assay type: biochemical
# Condition Set: read-out: SRC_IC50
Each entry below carries its reported pIC50.
Scale: pIC50 equals -log10([C]), with [C] in mol/L.

{"Structure Smiles String": "Cc1cc(Oc2c(F)cccc2F)ncc1-n1ncc(C(=O)c2cc3cc(OC4CCN(C(C)C)CC4)c(-c4cncnc4)cc3[nH]2)c1N", "Outcome Measure": "pIC50", "Reported Measurement": 8.26}
{"Structure Smiles String": "Cc1cc(Oc2c(F)cccc2F)ncc1-n1ncc(C(=O)c2cc3cc(OCC(F)F)c(Br)cc3[nH]2)c1N", "Outcome Measure": "pIC50", "Reported Measurement": 7.43}

Query: Hello, I am looking for reported pIC50 with human Src enzyme (Homo sapiens, UniProt P12931) for CC(C)N1CCC(c2cc3[nH]c(C(=O)c4cnn(-c5ccc(Oc6ccccc6F)cc5)c4N)cc3cc2F)CC1 . Could you help?
Reply: 7.96

Query: Hello, I am looking for reported pIC50 with human Src enzyme (Homo sapiens, UniProt P12931) for Cc1cc(Oc2ccccc2F)ncc1-n1ncc(C(=O)c2cc3cc(OC4CCN(C(C)C)CC4)c(Br)cc3[nH]2)c1N . Could you help?
Reply: 8.10

Query: Hello, I am looking for reported pIC50 with human Src enzyme (Homo sapiens, UniProt P12931) for Cc1cc(Oc2c(F)cccc2F)ncc1-n1ncc(C(=O)c2cc3cc(F)c(NS(=O)(=O)C4CCOCC4)cc3[nH]2)c1N . Could you help?
Reply: 7.25

Query: Hello, I am looking for reported pIC50 with human Src enzyme (Homo sapiens, UniProt P12931) for Cc1cc(Oc2cccc(Cl)c2)nc(C)c1-n1ncc(C(=O)c2cc3cc(F)c(NS(C)(=O)=O)cc3[nH]2)c1N . Could you help?
Reply: 6.09

----------
# Study System: human Lck enzyme (Homo sapiens, UniProt P06239)
# Construct: purchased Carna Biosciences, Inc. 08-170
# Sequence (P06239 whole entry): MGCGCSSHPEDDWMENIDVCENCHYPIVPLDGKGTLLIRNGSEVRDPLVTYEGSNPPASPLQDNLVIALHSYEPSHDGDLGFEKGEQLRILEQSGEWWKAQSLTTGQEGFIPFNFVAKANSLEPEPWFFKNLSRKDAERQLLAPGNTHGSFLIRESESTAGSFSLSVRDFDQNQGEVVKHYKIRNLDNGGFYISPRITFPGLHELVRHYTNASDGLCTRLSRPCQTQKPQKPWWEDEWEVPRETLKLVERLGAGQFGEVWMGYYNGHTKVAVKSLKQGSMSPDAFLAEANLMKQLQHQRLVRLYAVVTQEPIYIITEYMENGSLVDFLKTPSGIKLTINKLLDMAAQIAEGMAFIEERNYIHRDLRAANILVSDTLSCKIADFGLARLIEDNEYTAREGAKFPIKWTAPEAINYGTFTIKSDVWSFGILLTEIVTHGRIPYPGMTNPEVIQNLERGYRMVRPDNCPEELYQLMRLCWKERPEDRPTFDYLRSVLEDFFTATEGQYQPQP
# Procedure Text: Lck enzyme inhibitory activity (time-resolved fluorometry, biotinylated peptide phosphorylation)
# Type: biochemical
# Condition Set: read-out: LCK_IC50
Each entry below carries its reported IC50.
Respond numerically; units are nM and should not be typed.

Worked cases, answers included:
{"Molecule": "Cc1cc(Oc2c(F)cccc2F)ncc1-n1ncc(C(=O)c2cc3cc(OCC(F)F)c(C4CCN(C(=O)OC(C)(C)C)CC4)cc3[nH]2)c1N [Example 5-1-069]", "Outcome Measure": "IC50", "Reported Measurement": 20}
{"Molecule": "Cc1cc(Oc2ccccc2F)ccc1-n1ncc(C(=O)c2cc3cc(OCC(F)F)c(NC(=O)OCC4c5ccccc5-c5ccccc54)cc3[nH]2)c1N [Example 5-1-279]", "Outcome Measure": "IC50", "Reported Measurement": 170}

Query: # lookup: IC50 of Cc1cc(Oc2cccc(Cl)c2)nc(C)c1-n1ncc(C(=O)c2cc3cc(F)c(NS(C)(=O)=O)cc3[nH]2)c1N [Example 5-1-052]
Reply: 250

Query: # lookup: IC50 of CC(=O)N1CCC(c2cc3[nH]c(C(=O)c4cnn(-c5cnc(Oc6ccccc6F)cc5C)c4N)cc3cc2C)CC1 [Example 5-1-133]
Reply: 2.5

Query: # lookup: IC50 of Cc1cc(-n2ncc(C(=O)c3cc4cc(OC5CCN(C6CS(=O)(=O)C6)CC5)c(Br)cc4[nH]3)c2N)ccc1Oc1ccccc1F [Example 5-1-227]
Reply: 46

Query: # lookup: IC50 of Cc1cc(-n2ncc(C(=O)c3cc4cc(OC5CCN(C(C)C)CC5)c(F)cc4[nH]3)c2N)ccc1Oc1cccc(F)c1 [Example 5-1-208]
Reply: 65

Query: # lookup: IC50 of Cc1cc(-n2ncc(C(=O)c3cc4cc(N5CCOCC5)c(NS(C)(=O)=O)cc4[nH]3)c2N)ccc1Oc1ccccc1F [Example 5-1-157]
Reply: 480

Query: # lookup: IC50 of Cc1cc(Oc2ccccc2F)ccc1-n1ncc(C(=O)c2cc3cc(OC4CCN(C(C)C)CC4)c(N4CCC(N5CCOCC5)CC4)cc3[nH]2)c1N [Example 5-1-194]
Reply: 1.2

Query: # lookup: IC50 of Cc1cc(-n2ncc(C(=O)c3cc4cc(F)c(NS(C)(=O)=O)cc4[nH]3)c2N)ccc1Oc1ccccc1F [Example 5-1-017]
Reply: 630
